molecular target: T1, purified interference factor(s) from Donor B (human); test: SPR, interference factor immobilized; % of Fig. 9 reference
T1 construct: the text names the donors 8, 19 and 30; also called interference in serum from Donor B
property.label: interference binding, % of Reference Sequence (%)

[1] SEQ ID NO: 78 (VHH) VHH: EVQLVESGGGLVRPGGSLRLSCAASRSIGRLDRMGWYRHRPGEPRELVATITGGSSINYGDSVKGRFTISIDNSKNTVYLQMNSLRPEDTAVYYCNFNKYVTSRDTWGQGTLVTVSS
[2] SEQ ID NO: 72 (VHH) VHH: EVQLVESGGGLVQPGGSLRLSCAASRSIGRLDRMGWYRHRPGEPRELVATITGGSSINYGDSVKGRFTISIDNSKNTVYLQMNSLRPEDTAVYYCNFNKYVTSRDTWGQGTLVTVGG
[3] SEQ ID NO: 87 (VHH) VHH: EVQLVESGGGSVQPGGSLRLSCAASRSIGRLDRMGWYRHRPGEPRELVATITGGSSINYGDSVKGRFTISIDNSKNTVYLQMNSLRPEDTAVYYCNFNKYVTSRDTWGQGTLVTVGG
[4] SEQ ID NO: 76 (VHH) VHH: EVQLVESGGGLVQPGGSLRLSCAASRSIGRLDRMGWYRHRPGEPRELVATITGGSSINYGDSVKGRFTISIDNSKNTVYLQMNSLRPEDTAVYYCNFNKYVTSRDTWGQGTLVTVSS
Inquiry: Rank the binders listed above in increasing order of interference binding, % of Reference Sequence. // list labels; follow requested order
Reply text: 3, 4, 2, 1
(3: 5%, 4: 17%, 2: 47%, 1: 96%)
